Origin of values: PubChem BioAssay AID977614

Tested on: L. donovani amastigotes in THP-1 macrophages, DAPI imaging, 72 h
Assay: L. donovani intracellular amastigote growth inhibitors, imaging, THP-1 host macrophages, single concentration (AID 977614);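 note: signal is the parasite per host cell ratio from DAPI stained kinetoplasts and nuclei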
Activity calls are given as the source filed them.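 Rule for the calls: active = parasite count per well reduced by over 3 SD from the mean, with host cell number above 80% of untreated; inactive = the rest.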
Catalogue of molecules with associated AC50
readout kind: AC50

>>> print(df.to_string())
                            chemical_smiles                               measured_on  readout_kind       readout_value
0  C/C=C/c1ccc([C@@H]2[C@H](CO)N[C@H]2CN(C(=O)c2ccccc2F)C(C)C)cc1  L. donovani amastigotes in THP-1 macrophages, DAPI imaging, 72 h          AC50  > 10 µM (inactive)
1  CNC[C@@H]1OCc2cnnn2CCCC(=O)N([C@@H](C)CO)C[C@@H]1C  L. donovani amastigotes in THP-1 macrophages, DAPI imaging, 72 h          AC50  > 10 µM (inactive)
2  CCCNC(=O)N1C[C@@H]2[C@H](c3ccccc31)[C@H](CO)N2C(=O)CN1CCOCC1  L. donovani amastigotes in THP-1 macrophages, DAPI imaging, 72 h          AC50  > 10 µM (inactive)
3  C[C@H](CO)N1C[C@H](C)[C@@H](CN(C)Cc2ccc3c(c2)OCCN3C)OCc2cnnn2CCCC1=O  L. donovani amastigotes in THP-1 macrophages, DAPI imaging, 72 h          AC50  > 10 µM (inactive)
4  COCC(=O)N1[C@@H]2CN(C(=O)c3cccnc3)c3ccccc3[C@@H]2[C@@H]1CO  L. donovani amastigotes in THP-1 macrophages, DAPI imaging, 72 h          AC50  > 10 µM (inactive)

====

Test system: L. donovani amastigotes in THP-1 macrophages, DAPI imaging, 72 h
Assay: L. donovani intracellular amastigote growth inhibitors, imaging, THP-1 host macrophages, single concentration (AID 977614);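 note: signal is the parasite per host cell ratio from DAPI stained kinetoplasts and nuclei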
Active and inactive are the calls of the source.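 The calls were made as follows: active = parasite count per well reduced by over 3 SD from the mean, with host cell number above 80% of untreated; inactive = the rest.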
Catalogue of compounds with associated AC50
readout kind: AC50

                            chemical_smiles  readout_kind       readout_value
0  C[C@@H]1CN([C@@H](C)CO)C(=O)CCCn2nncc2CO[C@@H]1CN(C)Cc1cccc2c1OCCCO2          AC50  > 10 µM (inactive)
1  CNC[C@@H]1OCc2cnnn2CCCC(=O)N([C@H](C)CO)C[C@H]1C          AC50  > 10 µM (inactive)
2  C[C@@H]1CN([C@@H](C)CO)C(=O)CCCn2cc(nn2)CO[C@@H]1CN(C)C(=O)NC1CCCCC1          AC50  > 10 µM (inactive)
3  O=C(CC(F)(F)F)N1C[C@H]2[C@@H](c3ccccc31)[C@H](CO)N2C(=O)C1CCCCC1          AC50  > 10 µM (inactive)
4  C/C=C/c1ccc([C@H]2[C@H](CO)N(C(C)=O)[C@H]2CNC(=O)c2ccccc2)cc1          AC50  > 10 µM (inactive)

====

Test system: L. donovani amastigotes in THP-1 macrophages, DAPI imaging, 72 h
Experiment: L. donovani intracellular amastigote growth inhibitors, imaging, THP-1 host macrophages, single concentration (AID 977614);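 note: signal is the parasite per host cell ratio from DAPI stained kinetoplasts and nuclei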
Activity calls are given as the source filed them.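 How the source made its calls: active means parasite count per well reduced by over 3 SD from the mean, with host cell number above 80% of untreated; inactive means the rest.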
readout kind: AC50

>>> print(df.to_string())
                             chemical_smiles       readout_value
 0  CC(=O)NC[C@H]1[C@@H](c2ccc(C#CC(C)C)cc2)[C@@H](CO)N1Cc1ccccn1  > 10 µM (inactive)
 1  O=C(c1cccc(F)c1)N1C[C@H]2[C@@H](c3ccccc31)[C@@H](CO)N2Cc1cocn1  > 10 µM (inactive)
 2  C[C@H]1CN([C@@H](C)CO)C(=O)CCCn2cc(nn2)CO[C@H]1CN(C)C(=O)CCC(F)(F)F  > 10 µM (inactive)
 3  O=C(c1ccc2c(c1)OCO2)N1C[C@@H]2[C@H](c3ccccc31)[C@H](CO)N2Cc1cccnc1  > 10 µM (inactive)
 4  C[C@H](CO)N1C[C@H](C)[C@@H](CN(C)S(=O)(=O)c2ccc(-n3cccn3)cc2)OCc2cn(nn2)CCCC1=O  > 10 µM (inactive)
 5  CC(=O)N1[C@H](CO)[C@@H](c2ccccc2)[C@H]1CN(CC1CCC1)C(=O)CN(C)C  > 10 µM (inactive)
 6  O=C(Nc1ccccc1Cl)N1C[C@@H]2[C@H](c3ccccc31)[C@@H](CO)N2Cc1ccncc1  > 10 µM (inactive)
 7  C/C=C/c1ccc([C@@H]2[C@@H](CNC(=O)CC3CC3)N(C(=O)CC)[C@H]2CO)cc1  > 10 µM (inactive)
 8  C[C@@H]1CN([C@H](C)CO)C(=O)CCCn2nncc2CO[C@@H]1CN(C)Cc1ccc2c(c1)OCCN2C  > 10 µM (inactive)
 9  O=C(c1ccccc1F)N1C[C@@H]2[C@H](c3ccccc31)[C@H](CO)N2Cc1ccc2c(c1)OCO2  > 10 µM (inactive)
10  C[C@@H]1CN([C@H](C)CO)C(=O)CCCn2nncc2CO[C@@H]1CN(C)S(=O)(=O)c1cn(C)cn1  > 10 µM (inactive)
11  CCCNC(=O)N1C[C@@H]2[C@H](c3ccccc31)[C@H](CO)N2C(=O)Nc1ccccc1F  > 10 µM (inactive)
12  COc1ccccc1C(=O)N1C[C@@H]2[C@H](c3ccccc31)[C@H](CO)N2CC1CCCC1  > 10 µM (inactive)
13  CCN(C[C@H]1[C@H](c2ccc(-c3cccnc3)cc2)[C@H](CO)N1C(C)=O)C(C)=O  > 10 µM (inactive)
14  C[C@@H]1CN([C@H](C)CO)C(=O)CCCn2nncc2CO[C@@H]1CN(C)Cc1ccc(C(=O)Nc2ccccc2N)cc1  > 10 µM (inactive)
15  COCCNC[C@H]1[C@@H](c2ccccc2)[C@@H](CO)N1c1nc(C)c(C)s1  > 10 µM (inactive)
16  OC[C@H]1N[C@@H](CNCC2CCC2)[C@@H]1c1ccc(C2=CCCCC2)cc1  > 10 µM (inactive)
